Data origin, for the record: patent US11512079B2

Tested on: Cryptococcus gattii
measured attribute: MIC

• Nc1ncccc1-c1cc(Cc2ccc(Oc3cccc(F)n3)cc2)no1 = ≤ 0.01 µg/mL
• Cc1nc(COc2ccc(Cc3cc(-c4cccnc4N)on3)cn2)cs1 = 0.1 to 1 µg/mL
• Nc1ncccc1-c1cc(Cc2ccc(OCc3ccnc(Br)c3)nc2)no1 = 0.01 to 0.1 µg/mL
• Nc1ncccc1-c1cc(Cc2ccc(OCc3ccccn3)nc2)no1 = 0.01 to 0.1 µg/mL
• Nc1ncccc1-c1cc(Cc2cnc(Oc3ccccc3)c(F)c2)no1 = > 1 µg/mL

###

Here we list compounds with their recorded MIC when tested on Cryptococcus gattii.
measured attribute: MIC

- Nc1ncccc1-c1cc(Cc2ccc(COc3cc(F)ccc3F)cc2)no1: 0.1 to 1 µg/mL
- Nc1ncccc1-c1cc(Cc2ccc(CNc3cccc(F)c3)cc2)no1: 0.01 to 0.1 µg/mL
- Nc1ncccc1-c1cc(Cc2ccc(COc3cccc(F)c3)cc2)no1: 0.01 to 0.1 µg/mL
- Nc1ncccc1-c1cc(Cc2ccc(Cn3cccn3)cc2)no1: 0.01 to 0.1 µg/mL
- Nc1ncccc1-c1cc(Cc2cnc(Oc3cc(F)cc(F)c3)nc2)no1: > 1 µg/mL
- CC(Oc1ccc(Cc2cc(-c3cccnc3N)on2)cn1)c1ccccn1 (stereo not drawn): 0.1 to 1 µg/mL
- Nc1ncccc1-c1cc(Cc2ccc(Oc3cccc(Cl)n3)cc2)no1: ≤ 0.01 µg/mL
- Nc1ncccc1-c1cc(Cc2ccc(OCc3ccco3)nc2)no1: > 1 µg/mL
- Nc1ncccc1-c1cc(Cc2ccc(Oc3ccccc3)nc2)no1: ≤ 0.01 µg/mL
